From: the OligoGym collection

MEASURED ON: FPGS
ASSAY: pooled miR-30 sensor sort-seq; sequence = guide strand; further: reference of the scale not given here
RUN PARAMETERS: shRNA
# sensor-assay potency score (higher = more potent) values compiled below
Reply with the value as a number alone.

RESIDUE STRING | NUMERIC READOUT
TGTCTGAGGGTCACCCCGCTGG | -0.513

Qu. Give reported sensor-assay potency score (higher = more potent) value for TTCTCTTGGAGGAAGACGTGGA
Ans. 0.047

Qu. Report measured sensor-assay potency score (higher = more potent); entry is TTGATGCGGATCCGCTCCCGAA
Ans. -1.62

Qu. Look up sensor-assay potency score (higher = more potent) of TCACTGTGAAGTTCTGTTGGTC and report it.
Ans. 0.188

Qu. Identify measured sensor-assay potency score (higher = more potent) associated with TGAAGAGCAAGACTCGAACCTC
Ans. -0.155

Qu. Give the value of sensor-assay potency score (higher = more potent) reported for the following: TCGGAGGATACATTCCGTGAAG
Ans. -1.5

Qu. For the sequence TTCCGTGAAGGCACAGGTGGAG , report sensor-assay potency score (higher = more potent).
Ans. 0.0376

Qu. Hello, please tell me recorded sensor-assay potency score (higher = more potent) for this one: TAGCATTGAAGAGCAAGACTCG
Ans. -0.404

Qu. Provide measured sensor-assay potency score (higher = more potent) value, entry: TCTGTTGGTCTGCGTTGCCTGT
Ans. -0.767

Qu. Could you please provide reported sensor-assay potency score (higher = more potent) for TTCCTGATGATGTTGGTGCAGT ? Thanks!
Ans. -0.727

Qu. Answer with the recorded sensor-assay potency score (higher = more potent) for the sequence listed here: TAGAGGACATGAGATCTGCTGG
Ans. -0.333

Qu. Quickly give me recorded sensor-assay potency score (higher = more potent) for TGCCTGTGGATGACACCTCTGT
Ans. -0.547

Qu. # return recorded sensor-assay potency score (higher = more potent) for input TTCTGTTGGTCTGCGTTGCCTG
Ans. -0.416

Qu. Give recorded sensor-assay potency score (higher = more potent). TTGGTCTGCGTTGCCTGTGGAT
Ans. -1.06

Qu. Give sensor-assay potency score (higher = more potent) for the following sequence: TTGCCTGTGGATGACACCTCTG
Ans. -0.989

Qu. Supply sensor-assay potency score (higher = more potent) value. Item: TTCACCTGCTCCAGGTAGCCGG
Ans. -1.54

====

MEASURED ON: TAAR8
ASSAY: pooled miR-30 sensor sort-seq; sequence = guide strand
RUN PARAMETERS: shRNA
Tick yes (1) if sensor-assay potency score (higher = more potent) is -0.6 or greater. Tick no (0) if sensor-assay potency score (higher = more potent) is less than -0.6.

RESIDUE STRING | LABEL VALUE
TAATATATCAACTGTATACGGT | yes (1)
TATAGCTTGTTGTTTAGCTATA | no (0)
TAGCCTTTAAAACATCTCCACT | no (0)

Turning now to a further record.
Qu. Does sensor-assay potency score (higher = more potent) meet or surpass -0.6 for TCAGTAACCACAATGTACCTGT ?
Ans. yes (1)

====

MEASURED ON: CNTD1
ASSAY: pooled miR-30 sensor sort-seq; sequence = guide strand
RUN PARAMETERS: shRNA
MEASURED PARAMETER: sensor-assay potency score (higher = more potent)
Output: the number by itself.

RESIDUE STRING | NUMERIC READOUT
TTCATGCAGAAGATAGACCAGG | -0.656
TCTCTTATTATCTCTTGGCTGG | -0.35

Qu. Supply sensor-assay potency score (higher = more potent) value. Item: TAGACTGCTGTCTCCCCGGAGT
Ans. -0.817

Qu. Give reported sensor-assay potency score (higher = more potent) value for TTTTGGATGAAAGCACTTGCTG
Ans. -1.34

Qu. Given TTTGGATGAAAGCACTTGCTGC , respond with its sensor-assay potency score (higher = more potent).
Ans. -0.907
